# Subject of test: HIV protease (Human immunodeficiency virus type 1 group M subtype B)
# Construct: HIV protease was expressed in E. coli
# Test summary: Recombinant HIV Protease HPLC Assay
# Assay context: recombinant HIV protease expressed in E. coli; substrate VSFNFPQITL-NH₂; pH 5.5; 37° for 30 min; HPLC readout
Endpoint: IC50 (nM)
# number only, unit nM dropped from output

Answer with IC50 of CCC(CC)C(=O)NC(C(=O)NC(CC1CCCCC1)C(O)CC(=O)NC(CC1CC1)C(=O)NCCCc1ccccc1)C(C)C (stereo not drawn) measured for HIV protease (Human immunodeficiency virus type 1 group M subtype B).
135

Find the measured IC50 of COC(=O)CCC(NC(=O)CC(O)C(CC1CCCCC1)NC(=O)C(NC(=O)C(O)CO)C(C)(C)C)C(=O)NCCc1ccccc1 (stereo not drawn) with HIV protease (Human immunodeficiency virus type 1 group M subtype B) as test system.
200

Provide IC50, tested on HIV protease (Human immunodeficiency virus type 1 group M subtype B), for COC(=O)CCC(NC(=O)CC(O)C(CC1CCCCC1)NC(=O)C(NC(C)=O)C(C)(C)C)C(=O)NCCc1ccccc1 (stereo not drawn) .
150
